biological target: Staphylococcus pyruvate kinase (PK) (Staphylococcus aureus, UniProt Q6GG09); test: In vitro enzyme assay, pyruvate kinase inhibition; type: biochemical; details: IC50 ± SD
Sequence (Q6GG09 whole entry): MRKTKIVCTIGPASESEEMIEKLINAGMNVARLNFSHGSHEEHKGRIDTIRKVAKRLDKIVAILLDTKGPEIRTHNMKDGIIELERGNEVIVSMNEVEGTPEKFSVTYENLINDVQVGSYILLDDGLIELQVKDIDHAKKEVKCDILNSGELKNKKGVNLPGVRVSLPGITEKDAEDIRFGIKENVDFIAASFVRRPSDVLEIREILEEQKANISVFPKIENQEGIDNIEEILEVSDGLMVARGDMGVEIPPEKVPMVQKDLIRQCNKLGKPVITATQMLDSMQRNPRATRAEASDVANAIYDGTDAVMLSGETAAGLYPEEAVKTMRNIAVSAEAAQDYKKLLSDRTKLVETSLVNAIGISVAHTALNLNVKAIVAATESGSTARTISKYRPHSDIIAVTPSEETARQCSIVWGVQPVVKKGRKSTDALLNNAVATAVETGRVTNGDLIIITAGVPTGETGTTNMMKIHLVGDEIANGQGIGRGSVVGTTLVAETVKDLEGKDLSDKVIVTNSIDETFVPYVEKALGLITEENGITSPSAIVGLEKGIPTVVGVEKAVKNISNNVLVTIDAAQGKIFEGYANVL
quantity: IC50

What value of IC50 has been reported for the following compound? O=C(O)c1cccc2nc3ccccc3nc12 [Compound 3, phenazine-1-carboxylic acid] 22.5 µM

Given COC(=O)c1cccc2nc3c(C(=O)O)cccc3nc12 [Compound 2] , state its recorded IC50. 9.3 µM

Entry COC(=O)c1cccc2nc3c(C(=O)OC)cccc3nc12 [Compound 1, dimethyl phenazine-1,6-dicarboxylate] : reported IC50 = ? 7.2 µM

---

test system: Staphylococcus aureus ATCC9144; experiment: Antibacterial activity, growth inhibition in 96 well plates (OD600); assay type: cell-based; conditions: Staphylococcus aureus, ATCC9144, at 15 µM; NA: no activity
The entries below are paired with their reported inhibition at 15 µM.
Enter your answer as a number in %; do not include the unit.

COc1ccc(C(N)=O)cc1 [Compound 10, p-anisamide] ... 53.2
COC(=O)c1cccc2nc3c(C(=O)OC)cccc3nc12 [Compound 1, dimethyl phenazine-1,6-dicarboxylate] ... 47
CNC(C)C1CCC(N)C(OC2C(N)CC(N)C(OC3OCC(C)(O)C(NC)C3O)C2O)O1 (stereo not shown) [Gentamicin, reference compound] ... 99.1

// switching to the query compound
I'd like to know its inhibition at 15 µM. The compound in question is COC(=O)c1cccc2nc3c(C(=O)O)cccc3nc12 [Compound 2] 69
